Tested on: biotinyl-Ile-oxazolone
assay-explanation: self-aminoacylation, catalytic enhancement (BIO) (fold over background); higher = more active; k-Seq, kA / k0A0; sequences stand for … in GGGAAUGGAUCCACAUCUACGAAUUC…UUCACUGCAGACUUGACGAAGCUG
Variants at the floor of the assay were thinned out.
Would you kindly list self-aminoacylation for each of these sequences?
No unit in the answer, please; the number alone is enough.

// query Given CUCCGUCAAACAAUCGGUCUG [Fam1A.1 aminoacylation ribozyme variant] , state its recorded self-aminoacylation.
// result 1.07

// query Check AUUCACCUAGGUCAUCAGGGG [Fam2.2 aminoacylation ribozyme variant] too.
// result 1.22

// query Would you mind doing AAGUUUGCUAAAAGUCGCAGG [Fam3.1 aminoacylation ribozyme variant] as well?
// result 1.26

// query Follow-up entry: AUUACCCUGAUCGUCGAGUGA [Fam2.1 aminoacylation ribozyme variant]
// result 0.89

// query Param item: CUACUUCAUACAGUCGGUCUG [Fam1A.1 aminoacylation ribozyme variant]
// result 0.574

* * *

Tested on: biotinyl-Trp-oxazolone
assay-explanation: self-aminoacylation, catalytic enhancement (BWO) (fold over background); higher = more active; k-Seq, kA / k0A0; sequences stand for … in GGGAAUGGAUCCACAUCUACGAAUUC…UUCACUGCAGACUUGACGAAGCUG
Variants at the floor of the assay were thinned out.
The label depends only on self-aminoacylation: class 1 if it is at least 3, class 0 if it is smaller.

// query Hi, just wondering whether AUUCCCCUGGGUCAUCGGGUG [Fam2.2 aminoacylation ribozyme variant] shows self-aminoacylation of 3 or higher.
// result class 1

// query Queued: CCGCACUUCAGGCAAUCGGUC [Fam1B.1 aminoacylation ribozyme variant]
// result class 0

// query Also, AAGUUUGCUAAUAAUCGCAAG [Fam3.1 aminoacylation ribozyme variant] please.
// result class 0

// query Likewise for GUCCUUCAAACAAUCGGUCUG [Fam1A.1 aminoacylation ribozyme variant] ?
// result class 1

// query Record: AUUACCCUGGUCAACGGGUGA [Fam2.1 aminoacylation ribozyme variant]
// result class 1

* * *

Give self-aminoacylation for every item shown.
System: biotinyl-Val-oxazolone
assay-explanation: self-aminoacylation, catalytic enhancement (BVO) (fold over background); higher = more active; k-Seq, kA / k0A0; sequences stand for … in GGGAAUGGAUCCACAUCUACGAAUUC…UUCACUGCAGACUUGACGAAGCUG
Fewer inactive variants are shown than the library holds.
Reply briefly: the number, and no unit.

// query Quick one: self-aminoacylation for CCACACUGCAAGCAAUAGGUC [Fam1B.1 aminoacylation ribozyme variant] ?
// result 0.907

// query Let us now turn to CUACUUCAAAGCAUCGGUCUG [Fam1A.1 aminoacylation ribozyme variant]
// result 0.939

// query Further, for CUGCUUCAAGCAAUCGGUCUG [Fam1A.1 aminoacylation ribozyme variant] ?
// result 1.49

// query Further, for AUUCAUCUAGGUCCUCGGGUG [Fam2.2 aminoacylation ribozyme variant] ?
// result 3.9

// query Queued: AUUACCCUGGUCUUCCAGUGA [Fam2.1 aminoacylation ribozyme variant]
// result 3.51

// query Same for CUACUUCAAACAAACGUUCUG [Fam1A.1 aminoacylation ribozyme variant]
// result 0.622

// query Consider next the sequence CUACUUCAAGCAAUCGGUAUG [Fam1A.1 aminoacylation ribozyme variant] in the same way.
// result 0.963

// query Also check AAUACCCUGGUCAACGAGUGA [Fam2.1 aminoacylation ribozyme variant]
// result 2.53

// query Same question for AUGUUUGCUAGUAGUCGCAAG [Fam3.1 aminoacylation ribozyme variant] please.
// result 0.827

// query What about this sequence? UAGUUUGCUAAUAGUCGCUAG [Fam3.1 aminoacylation ribozyme variant]
// result 1.13

// query Note, next up: AUUACCCUGGACAUGGAGUGA [Fam2.1 aminoacylation ribozyme variant]
// result 3.69

// query What about this sequence? CCACACUUCAAGCAAUCCUUC [Fam1B.1 aminoacylation ribozyme variant]
// result 0.899

// query Same question, AAGUUAGCUAAUAAUCGCAAG [Fam3.1 aminoacylation ribozyme variant] this time
// result 1.26

// query What would you report for AUUACCCUGGUAAUCGAGUGU [Fam2.1 aminoacylation ribozyme variant] ?
// result 2.22

// query Same thing, different sequence: CUCCGUCAAACAAUCGGUCUG [Fam1A.1 aminoacylation ribozyme variant]
// result 0.973

// query Now consider GUUACCCUGGUCAUCUAGUGA [Fam2.1 aminoacylation ribozyme variant] and answer again.
// result 6.05

// query How about this sequence: CUACUUCAAACAAUCGGUUGG [Fam1A.1 aminoacylation ribozyme variant]
// result 0.812

// query Then what about the sequence CAGUUUGCUAUUAGUCGCAAG [Fam3.1 aminoacylation ribozyme variant] ?
// result 1.22

// query # repeat for AUUACCCUGGUCAUCGAGUGG [Fam2.1 aminoacylation ribozyme variant]
// result 18.5

// query Quick one: AUUCACCCAGGUCAGCGGGUG [Fam2.2 aminoacylation ribozyme variant]
// result 2.73

// query Now the sequence AUCACCCUAGUCAUCGAGUGA [Fam2.1 aminoacylation ribozyme variant]
// result 4.27

// query Do the same for AAGUUUGCAAAUAGUCGAAAG [Fam3.1 aminoacylation ribozyme variant] please
// result 0.824

// query Next entry: AAGUUUGCUAAUCGGCGCAAG [Fam3.1 aminoacylation ribozyme variant]
// result 1.14

// query Same question, AUUCACCUAGGUCUUCGGGUU [Fam2.2 aminoacylation ribozyme variant] this time
// result 2.98

// query Lookup AGUACCCUGGUCAUCGACUGA [Fam2.1 aminoacylation ribozyme variant]
// result 1.07

// query Now give it for CUACUUCAGACAAUCGGUCUC [Fam1A.1 aminoacylation ribozyme variant] too.
// result 0.977

// query What about this sequence? AUGCACCUAGGUCAUCGUGUG [Fam2.2 aminoacylation ribozyme variant]
// result 1.04

// query AAUUUUGCUAAUACUCGCAAG [Fam3.1 aminoacylation ribozyme variant] , same question.
// result 1.35

// query Now try AUUACACUGGUAAUCGAGUGA [Fam2.1 aminoacylation ribozyme variant] .
// result 3.38

// query Ok, now CCACACAGCAAGCAAUCGGUC [Fam1B.1 aminoacylation ribozyme variant]
// result 1.11

// query Quick one: AUUACCCUGCUCGUCGAGUGA [Fam2.1 aminoacylation ribozyme variant]
// result 0.766

// query Now give it for AUUCUCCUAGGUCAUCGGGCG [Fam2.2 aminoacylation ribozyme variant] too.
// result 3.43

// query Further, for AAGUUUGCUAUUAGUCGCUAG [Fam3.1 aminoacylation ribozyme variant] ?
// result 0.85

// query What do we get for CGACUACAAACAAUCGGUCUG [Fam1A.1 aminoacylation ribozyme variant] ?
// result 1.15

// query Next up: AUUACGCUGGUCUUCGAGUGA [Fam2.1 aminoacylation ribozyme variant]
// result 3.32

* * *

Answer each item with its documented self-aminoacylation.
Test system: biotinyl-Val-oxazolone
assay-explanation: self-aminoacylation, catalytic enhancement (BVO) (fold over background); higher = more active; k-Seq, kA / k0A0; sequences stand for … in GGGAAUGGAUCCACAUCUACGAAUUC…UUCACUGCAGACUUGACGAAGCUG
Variants at the floor of the assay were thinned out.
Lab note: record the figure alone, no unit after it.

// query # lookup: self-aminoacylation of AAGUUUGCUAACAGUCACAAG [Fam3.1 aminoacylation ribozyme variant]
// result 0.942

// query Record: AAGUUUGCCAAUAGACGCAAG [Fam3.1 aminoacylation ribozyme variant]
// result 0.664

// query Try this sequence too: CCACACUUCAAGUAAUCCGUC [Fam1B.1 aminoacylation ribozyme variant]
// result 1.06

// query Try AUUACCCUGUUCAUCGGGUGA [Fam2.1 aminoacylation ribozyme variant] next.
// result 5.19

// query Request: AAGUUCGCUCAUAGUCGCAAG [Fam3.1 aminoacylation ribozyme variant]
// result 1.77

// query What do you have for UUUCACCUAGGUCACCGGGUG [Fam2.2 aminoacylation ribozyme variant] ?
// result 3.87

// query Ok, now CCACAUUUCAAGCAAUCGGGC [Fam1B.1 aminoacylation ribozyme variant]
// result 2.7

// query Next record, please: AUUACCCUGGGCAUGGAGUGA [Fam2.1 aminoacylation ribozyme variant]
// result 3.13

// query Next: AUUCGCCUAGGACAUCGGGUG [Fam2.2 aminoacylation ribozyme variant]
// result 3.02

// query For AAGUUUGCUAAUAAUCGCGAG [Fam3.1 aminoacylation ribozyme variant] then?
// result 0.808

// query Here is the next sequence: AUUACCCUGGCCAUCGCGUGA [Fam2.1 aminoacylation ribozyme variant]
// result 4.81

// query Subsequent entry: AAGUUUGCGAAUAGUUGCAAG [Fam3.1 aminoacylation ribozyme variant]
// result 0.803

// query Would you mind doing AAAUUUGCUAAUAGUCGCGAG [Fam3.1 aminoacylation ribozyme variant] as well?
// result 1.76

// query Subsequent entry: AAGUUUGCUAAGAGUCGUAAG [Fam3.1 aminoacylation ribozyme variant]
// result 0.757

// query Same question, AAGUUUGCUAAUUGUCGCAAG [Fam3.1 aminoacylation ribozyme variant] this time
// result 0.846

// query Also need CCACACUACAAGCAAUGGGUC [Fam1B.1 aminoacylation ribozyme variant] , thanks.
// result 0.842

// query Same thing, different sequence: CUAGUUCACACAAUCGGUCUG [Fam1A.1 aminoacylation ribozyme variant]
// result 1.14

// query Okay, and CCACACUUCAAGCAUUUGGUC [Fam1B.1 aminoacylation ribozyme variant] ?
// result 0.851

// query Item: AUUCACCUAGGCCAUCGGGCG [Fam2.2 aminoacylation ribozyme variant]
// result 3.17

// query Note, next up: CUUCUACAAACAAUCGGUCUG [Fam1A.1 aminoacylation ribozyme variant]
// result 0.831

// query What do we get for AUUCACCUAGGUCAUUGAGUG [Fam2.2 aminoacylation ribozyme variant] ?
// result 2.3

// query Try this sequence too: AUUACCCUGAUCAUCGCGUGA [Fam2.1 aminoacylation ribozyme variant]
// result 7.01

// query Same again, this time with AGGUUUACUAAUAGUCGCAAG [Fam3.1 aminoacylation ribozyme variant]
// result 1.47

// query Note, next up: AUUACCCUGCUCAUCGAAUGA [Fam2.1 aminoacylation ribozyme variant]
// result 0.974

// query How about this sequence: CUUCUUCAAACAAUCCGUCUG [Fam1A.1 aminoacylation ribozyme variant]
// result 0.901

// query // query: AUUCACCCAGAUCAUCGGGUG [Fam2.2 aminoacylation ribozyme variant]
// result 2.26

// query Consider next the sequence CCUCACUUCAAGCAAUCGGCC [Fam1B.1 aminoacylation ribozyme variant] in the same way.
// result 2.39

// query Do the same for AUUCACCAAGGUCAUCGCGUG [Fam2.2 aminoacylation ribozyme variant] please
// result 8.42

// query Next up: AAGUCUGCAAAUAGUCGCAAG [Fam3.1 aminoacylation ribozyme variant]
// result 0.671

// query Note, next up: CUACUUCAAAGAAUCGGUCUU [Fam1A.1 aminoacylation ribozyme variant]
// result 1.06

// query Then what about the sequence AGUCACCUAGGUCCUCGGGUG [Fam2.2 aminoacylation ribozyme variant] ?
// result 4.64

// query // same read-out, input: CCACCCUACAAGCAAUCGGUC [Fam1B.1 aminoacylation ribozyme variant]
// result 1.17

// query Next sequence up: AAGUUCGCUAACAGUCGCAAG [Fam3.1 aminoacylation ribozyme variant]
// result 1.33

// query Then what about the sequence UGUCACCUAGGUCAUCGGGUG [Fam2.2 aminoacylation ribozyme variant] ?
// result 3.6

// query What about CCACACCUCAAGCAUUCGGUC [Fam1B.1 aminoacylation ribozyme variant] ?
// result 2.54
